system: 377384-186-R-J1-PDC complex spheroid viability; experiment: Anticancer human tumor 377384-186-R-J1-PDC patient-derived pancreatic carcinoma cell line growth inhibition [RAS]; details: second compound 0.316 µM; first compound 0.03 µM; active = viability on the fitted dose curve at most 10% of control; inactive = the rest;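 note: spheroids exposed to compounds for seven days before readout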
Hi! Could you answer with just one of these? TRUE = active, FALSE = inactive

{"columns": ["COMPOUND", "TARGET OF ASSAY", "GROUP LABEL"],
 "data": [
  ["CC1(C)CCC(Nc2ncc(C(F)(F)F)c(-c3c[nH]c4c(P(C)(C)=O)c(C#N)ccc34)n2)CN1 (centres undefined) + C=CC(=O)N1CCN(c2nc(OCC3CCCN3C)nc3c(F)c(-c4nc(N)cc(C)c4C(F)(F)F)c(Cl)cc23)C(C)C1", "377384-186-R-J1-PDC complex spheroid viability", "FALSE"]
]}

Short answer needed: outcome of this test for CC1(C)CCC(Nc2ncc(C(F)(F)F)c(-c3c[nH]c4c(P(C)(C)=O)c(C#N)ccc34)n2)CN1 (centres undefined) + C#Cc1c(F)ccc2cc(O)cc(-c3ncc4c(N5CC6CCC(C5)N6)nc(OCC56CCCN5CC(F)C6)nc4c3F)c12 ? TRUE

Same question, CCc1c2c(nc3ccc(O)cc13)-c1cc3c(c(=O)n1C2)COC(=O)[C@]3(O)CC + C=CC(=O)N1CCN(c2nc(OCC3CCCN3C)nc3c(F)c(-c4nc(N)cc(C)c4C(F)(F)F)c(Cl)cc23)C(C)C1 this time TRUE

Next record, please: CCc1c2c(nc3ccc(O)cc13)-c1cc3c(c(=O)n1C2)COC(=O)[C@]3(O)CC + C#Cc1c(F)ccc2cc(O)cc(-c3ncc4c(N5CC6CCC(C5)N6)nc(OCC56CCCN5CC(F)C6)nc4c3F)c12 TRUE

Taken from PubChem BioAssay AID2060903.
